system: LOC_OS05G30820-cb001; assay: thermal shift delta Tm vs DMSO control; higher = stronger stabilization (binding); conditions: 12.5 µM; protein concentration 2 µM;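 further: purified Escherichia coli-expressed rice kinase domain construct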
Lab note: compare thermal shift delta Tm against 0.7 °C. Equal or greater, write yes. Smaller, write no.

// query Is the recorded value of thermal shift delta Tm equal to or greater than 0.7 °C for this compound? COc1cccc(-n2c(=O)[nH]c3cc(Cl)n(-c4ccc(-c5cccc(OC)c5O)cc4)c3c2=O)c1
// result no

// query Is the recorded value of thermal shift delta Tm equal to or greater than 0.7 °C for this compound? COc1ncc(-c2cc(-c3ncc(CN4C[C@@H](C)O[C@@H](C)C4)o3)c3cn[nH]c3c2)cc1NS(C)(=O)=O
// result no

// query Is the recorded value of thermal shift delta Tm equal to or greater than 0.7 °C for this compound? CSc1cccc(Nc2ncc3cc(-c4c(Cl)cccc4Cl)c(=O)n(C)c3n2)c1
// result no

// query Is the recorded value of thermal shift delta Tm equal to or greater than 0.7 °C for this compound? Cn1c(Nc2ccc(C(F)(F)F)cc2)nc2cc(Oc3ccnc(-c4ncc(C(F)(F)F)[nH]4)c3)ccc21
// result yes

// query Is the recorded value of thermal shift delta Tm equal to or greater than 0.7 °C for this compound? Nc1ncnc2n[nH]c(Nc3ccc(F)cc3)c12
// result yes

// query Is the recorded value of thermal shift delta Tm equal to or greater than 0.7 °C for this compound? Clc1ccc(Nc2nnc(Cc3ccncc3)c3ccccc23)cc1 [Vatalanib (PTK787) 2HCl]
// result no

// query Is the recorded value of thermal shift delta Tm equal to or greater than 0.7 °C for this compound? O=C(/C=C/c1ccc2ccccc2n1)c1ccncc1
// result no

// query Is the recorded value of thermal shift delta Tm equal to or greater than 0.7 °C for this compound? C=CC(=O)Nc1cccc(Nc2nc(Nc3ccc(Oc4ccnc(C(=O)NC)c4)cc3)ncc2F)c1
// result no

// query Is the recorded value of thermal shift delta Tm equal to or greater than 0.7 °C for this compound? COC(=O)N[C@@H](C)CNc1nccc(-c2cn(C(C)C)nc2-c2cc(Cl)cc(NS(C)(=O)=O)c2F)n1 [Encorafenib (LGX818)]
// result no

// query Is the recorded value of thermal shift delta Tm equal to or greater than 0.7 °C for this compound? CC1Oc2cc(cnc2N)-c2c(nn(C)c2C#N)CN(C)C(=O)c2ccc(F)cc21 (stereo not given)
// result no

Where do these numbers come from? They come from the supplement of paper PMC9694430.
